- Tested on: DIPG cell line NEM157 with histone 3.3 K27M mutation and p53 mutation
- experiment summary: CellTiter-Glo proliferation/viability, NEM157 cells
- Format: cell-based
- measurement conditions: 72 hours after treatment, FIG. 3, read-out: IC50 (cytotoxicity)
property name: IC50

- O[C@H]([C@H](O)[C@@H]1CO1)[C@H]1CO1 [VAL-083, dianhydrogalactitol]: ~10 µM
